Measured pKd, listed per entry for reference.
Target Entity: HLA-A*02:01
Assay Procedure: IEDB peptide-MHC binding, purified MHC/competitive/radioactivity; filed as Kd, often an IC50 or EC50 that approximates it; bounds were set here for any values at or beyond the usual limits of such assays
Assay Setup: source organism: Dengue virus 4 Philippines/H241/1956
Quick note: pKd values are minus log10 of concentrations in mol/L.

>>> df
   sequence_string  target_entity  meas_value
0       ILTILTIIGL    HLA-A*02:01        7.73
1       ALLGAMTAGI    HLA-A*02:01        7.60
2       FLGEDGCWYG    HLA-A*02:01        7.28

Proceeding to the next sequence to report its pKd.
Query :: Entry "VLFVVTLIPL" has what pKd?
Result :: 7.24

Recorded values, source the Immune Epitope Database (IEDB).
